# assaySystem: Transient receptor potential cation channel subfamily V member 1 (Rattus norvegicus, UniProt O35433)
# Sequence (O35433 whole entry): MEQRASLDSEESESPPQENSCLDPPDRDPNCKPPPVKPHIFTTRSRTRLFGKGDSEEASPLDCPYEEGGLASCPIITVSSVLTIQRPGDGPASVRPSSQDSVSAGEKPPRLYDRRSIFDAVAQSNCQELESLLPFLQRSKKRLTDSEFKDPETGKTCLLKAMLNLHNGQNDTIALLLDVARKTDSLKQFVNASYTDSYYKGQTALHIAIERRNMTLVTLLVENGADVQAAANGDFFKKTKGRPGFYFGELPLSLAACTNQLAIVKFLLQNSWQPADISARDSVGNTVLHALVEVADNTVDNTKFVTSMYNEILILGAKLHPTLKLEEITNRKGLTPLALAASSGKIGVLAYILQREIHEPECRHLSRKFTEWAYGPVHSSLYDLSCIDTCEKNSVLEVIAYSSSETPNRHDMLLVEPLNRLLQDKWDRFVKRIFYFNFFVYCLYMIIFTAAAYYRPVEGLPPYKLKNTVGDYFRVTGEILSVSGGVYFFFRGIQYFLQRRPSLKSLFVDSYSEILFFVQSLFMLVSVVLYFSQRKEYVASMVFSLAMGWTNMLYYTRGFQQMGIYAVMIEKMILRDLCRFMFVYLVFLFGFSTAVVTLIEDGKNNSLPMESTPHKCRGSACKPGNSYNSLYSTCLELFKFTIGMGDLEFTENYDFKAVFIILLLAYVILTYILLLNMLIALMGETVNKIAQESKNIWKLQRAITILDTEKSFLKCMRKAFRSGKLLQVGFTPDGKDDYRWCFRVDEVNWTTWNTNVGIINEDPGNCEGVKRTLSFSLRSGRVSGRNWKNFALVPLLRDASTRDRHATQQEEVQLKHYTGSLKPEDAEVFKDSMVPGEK
# procedureDetails: Antagonist activity at rat TRPV1 expressed in CHO cells assessed as inhibition of capsaicin-induced calcium mobilization
# Format: functional, cell-based
Assignment: determine reported log10 of IC50 for the given compounds.
Plainly stated, the numbers are log10 of IC50 given in nM.

log10 of IC50 for OC1CCc2cccc(Nc3cc(-c4ccc(C(F)(F)F)cc4)ncn3)c2C1 (single isomer, unassigned; (-)) ?
0.74

log10 of IC50 for OC1CCc2cccc(Nc3cc(-c4ccc(C(F)(F)F)cc4)ncn3)c2C1 (single isomer, unassigned; (+)) ?
0.76

log10 of IC50 for `CSc1cccc(NC(=O)Nc2cccc3ccc(O)cc23)c1` ?
1.54

log10 of IC50 for OC1CCc2cccc(Nc3cc(-c4ccc(C(F)(F)F)cc4)ncn3)c2C1 (stereo in doubt; 4) ?
0.49

log10 of IC50 for OC1CCc2c(Br)ccc(Nc3cc(-c4ccc(C(F)(F)F)cc4)ncn3)c2C1 (stereo not given) ?
0.98
